molecular target: HER4 (Homo sapiens, UniProt Q15303); assay: Mobility shift assay, kinase inhibition (HER4); format: biochemical; conditions: read-out: Kinase inhibitory activity IC50 (nM) HER4
Sequence (Q15303 26-1308): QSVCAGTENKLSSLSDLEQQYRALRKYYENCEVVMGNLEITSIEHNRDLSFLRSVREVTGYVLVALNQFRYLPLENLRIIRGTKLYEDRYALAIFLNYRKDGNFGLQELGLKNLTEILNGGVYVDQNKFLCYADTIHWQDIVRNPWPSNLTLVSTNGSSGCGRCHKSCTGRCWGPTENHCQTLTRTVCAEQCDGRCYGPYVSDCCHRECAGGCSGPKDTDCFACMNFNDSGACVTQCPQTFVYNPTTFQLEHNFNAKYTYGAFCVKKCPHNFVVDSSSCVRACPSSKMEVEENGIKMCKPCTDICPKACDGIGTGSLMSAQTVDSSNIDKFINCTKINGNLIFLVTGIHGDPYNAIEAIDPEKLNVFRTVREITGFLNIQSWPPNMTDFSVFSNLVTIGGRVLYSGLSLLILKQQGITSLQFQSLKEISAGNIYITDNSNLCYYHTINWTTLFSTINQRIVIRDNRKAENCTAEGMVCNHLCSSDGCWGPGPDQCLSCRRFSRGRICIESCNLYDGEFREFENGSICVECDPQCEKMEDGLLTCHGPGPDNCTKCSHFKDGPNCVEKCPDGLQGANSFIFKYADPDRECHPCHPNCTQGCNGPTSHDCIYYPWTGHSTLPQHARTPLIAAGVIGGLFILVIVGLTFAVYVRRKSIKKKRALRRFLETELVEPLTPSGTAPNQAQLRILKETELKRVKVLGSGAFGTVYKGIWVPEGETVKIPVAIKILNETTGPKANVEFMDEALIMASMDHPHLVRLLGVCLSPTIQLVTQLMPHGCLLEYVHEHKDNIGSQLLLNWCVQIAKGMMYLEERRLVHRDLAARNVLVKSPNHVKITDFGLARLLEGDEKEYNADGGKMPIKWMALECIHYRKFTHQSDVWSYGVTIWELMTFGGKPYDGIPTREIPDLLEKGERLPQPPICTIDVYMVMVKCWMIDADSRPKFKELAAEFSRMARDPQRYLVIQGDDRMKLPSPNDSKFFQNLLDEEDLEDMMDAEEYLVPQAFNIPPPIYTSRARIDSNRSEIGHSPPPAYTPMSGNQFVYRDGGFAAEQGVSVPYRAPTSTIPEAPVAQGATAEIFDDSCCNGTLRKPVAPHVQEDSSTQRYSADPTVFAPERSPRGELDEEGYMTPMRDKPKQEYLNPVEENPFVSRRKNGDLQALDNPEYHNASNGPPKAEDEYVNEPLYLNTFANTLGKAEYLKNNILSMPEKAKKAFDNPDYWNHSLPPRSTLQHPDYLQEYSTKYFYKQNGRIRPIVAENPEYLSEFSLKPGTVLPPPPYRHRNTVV
MEASURE: IC50 (nM)

COc1cc2ncnc(Nc3ccc(F)c(Cl)c3)c2cc1NC(=O)/C(F)=C/CN(C)C :: 23

I: COc1cc2ncnc(Nc3ccc(OCc4ccccn4)c(Cl)c3)c2cc1NC(=O)/C(F)=C\CN(C)C
II: COc1cc2ncnc(Nc3ccc(F)c(Cl)c3)c2cc1NC(=O)C(F)=CCN(C)C (mixture of isomers)
III: COc1cc2ncnc(Nc3ccc(F)c(Cl)c3)c2cc1NC(=O)/C(F)=C\CN(C)C
hey, can you rank those compounds up there by IC50? biggest number first please Respond with an ordered listing of the labels, as requested.
I, III, II
(I: 206 nM, III: 63 nM, II: 21 nM)

----------
molecular target: EGFR (Homo sapiens, UniProt P00533); test: Mobility shift assay, kinase inhibition (EGFR); assay type: biochemical; conditions: read-out: Kinase inhibitory activity IC50 (nM) EGFR
Sequence (P00533 25-1210): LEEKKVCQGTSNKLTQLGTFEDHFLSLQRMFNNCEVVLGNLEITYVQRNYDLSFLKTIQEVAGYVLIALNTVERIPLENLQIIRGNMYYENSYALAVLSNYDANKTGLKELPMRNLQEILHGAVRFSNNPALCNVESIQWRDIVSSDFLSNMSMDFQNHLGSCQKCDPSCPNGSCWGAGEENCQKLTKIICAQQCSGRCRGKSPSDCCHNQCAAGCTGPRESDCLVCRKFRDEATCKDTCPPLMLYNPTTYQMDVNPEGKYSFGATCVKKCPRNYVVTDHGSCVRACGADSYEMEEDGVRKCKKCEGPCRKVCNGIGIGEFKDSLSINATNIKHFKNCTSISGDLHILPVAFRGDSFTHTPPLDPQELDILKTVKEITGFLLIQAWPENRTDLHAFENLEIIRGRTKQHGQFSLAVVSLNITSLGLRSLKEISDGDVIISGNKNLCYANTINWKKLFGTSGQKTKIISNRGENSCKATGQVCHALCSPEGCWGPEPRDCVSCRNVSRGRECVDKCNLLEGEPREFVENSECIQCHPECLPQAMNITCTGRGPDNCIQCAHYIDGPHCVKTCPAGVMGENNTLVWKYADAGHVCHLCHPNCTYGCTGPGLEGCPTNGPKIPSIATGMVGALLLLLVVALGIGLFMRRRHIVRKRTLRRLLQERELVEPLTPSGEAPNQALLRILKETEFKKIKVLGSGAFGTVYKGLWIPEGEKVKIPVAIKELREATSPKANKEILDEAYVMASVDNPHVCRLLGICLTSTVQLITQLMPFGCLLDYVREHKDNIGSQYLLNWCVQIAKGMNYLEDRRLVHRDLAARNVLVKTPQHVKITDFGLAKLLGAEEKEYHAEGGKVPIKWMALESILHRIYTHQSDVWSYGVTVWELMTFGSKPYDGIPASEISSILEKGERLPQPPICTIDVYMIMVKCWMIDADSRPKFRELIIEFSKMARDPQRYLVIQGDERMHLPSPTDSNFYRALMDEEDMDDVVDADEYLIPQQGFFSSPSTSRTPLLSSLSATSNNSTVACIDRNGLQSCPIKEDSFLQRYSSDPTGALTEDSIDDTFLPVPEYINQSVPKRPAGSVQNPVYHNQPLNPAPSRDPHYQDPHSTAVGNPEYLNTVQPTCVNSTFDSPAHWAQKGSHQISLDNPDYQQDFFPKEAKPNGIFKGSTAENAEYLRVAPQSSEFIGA
MEASURE: IC50 (nM)

Solved entries (count: 2):
COCCOc1cc2ncnc(Nc3ccc(F)c(Cl)c3)c2cc1NC(=O)C(F)=CCN(C)C (mixture of isomers) [Compound 3-1] :: 2.5
COc1cc2ncnc(Nc3ccc(F)c(Cl)c3)c2cc1NC(=O)/C(F)=C/CN(C)C [Compound 2-1] :: 1.3

a: COc1cc2ncnc(Nc3ccc(F)c(Cl)c3)c2cc1NC(=O)C(F)=CCN(C)C (mixture of isomers) [Compound 1]
b: COc1cc2ncnc(Nc3ccc(F)c(Cl)c3)c2cc1NC(=O)/C(F)=C\CN(C)C [Compound 2-2]
c: COc1cc2ncnc(Nc3ccc(OCc4ccccn4)c(Cl)c3)c2cc1NC(=O)/C(F)=C\CN(C)C [Compound 4-2]
Endpoint returns the given compounds ordered by ascending IC50. Respond with an ordered listing of the labels, as requested.
a, b, c
(a: 1.7 nM, b: 4.5 nM, c: 9.5 nM)

----------
biological target: EGFR tyrosine kinase (Homo sapiens); construct: purchased Sigma Aldrich; experiment: HTRF assay, inhibition of EGFR tyrosine kinase; type: biochemical; details: HTRF method
MEASURE: IC50 (nM)

CN(C)C/C=C(\F)C(=O)Nc1cc2c(Nc3ccc(F)c(Cl)c3)ncnc2cc1O[C@H]1CCOC1 :: 0.16
C=C(F)C(=O)Nc1cc2c(Nc3ccc(F)c(Cl)c3)ncnc2cc1OC1CCN(C)C1 (stereo in doubt) :: 4.5
C=C(F)C(=O)Nc1cc2c(Nc3ccc(F)c(Cl)c3)ncnc2cc1OCCCN1CCOCC1 :: 0.39
C=C(Cl)C(=O)Nc1cc2c(Nc3cccc(Br)c3)ncnc2cc1OCC :: 0.63
C=C(Cl)C(=O)Nc1cc2c(Nc3cccc(C(F)(F)F)c3)ncnc2cc1OCC :: 1
CCOc1cc2ncnc(Nc3ccc(OCc4ccccn4)c(Cl)c3)c2cc1NC(=O)/C(F)=C\CN(C)C :: 0.89

A: C=C(F)C(=O)Nc1cc2c(Nc3ccc(F)c(Cl)c3F)ncnc2cc1OCC1CCC1
B: C=C(Cl)C(=O)Nc1cc2c(Nc3ccc(F)c(Cl)c3)ncnc2cc1OCCCN1CCOCC1 [Compound 35]
When A and B are compared, which has the higher number for IC50? Give the chosen item's label as your response.
A

----------
target: EGFR tyrosine kinase (Homo sapiens, UniProt P00533); construct: purchased Sigma Aldrich; experiment: HTRF assay, inhibition of EGFR tyrosine kinase; format: biochemical; conditions: HTRF method
Sequence (P00533 25-1210): as above
MEASURE: IC50 (nM)

Solved entries (count: 2):
C=C(F)C(=O)Nc1cc2c(Nc3cccc(C(F)(F)F)c3)ncnc2cc1OC [Compound 54] :: 1.1
C=C(F)C(=O)Nc1cc2c(Nc3ccc(Cl)c(Cl)c3F)ncnc2cc1OCCCN1CCOCC1 [Compound 30] :: 0.22

P: C=C(F)C(=O)Nc1cc2c(Nc3cccc(Br)c3)ncnc2cc1OC [Compound 52]
Q: C=C(F)C(=O)Nc1cc2c(Nc3cccc(Br)c3)ncnc2cc1OCC [Compound 53]
When P and Q are compared, which has the higher number for IC50? Give the chosen item's label as your response.
Q

----------
target: EGFR tyrosine kinase (Homo sapiens, UniProt P00533); construct: purchased Sigma Aldrich; assay: HTRF assay, inhibition of EGFR tyrosine kinase; type: biochemical; conditions: HTRF method
MEASURE: IC50 (nM)

Solved entries (count: 3):
C=C(F)C(=O)Nc1cc2c(Nc3ccc(F)c(Cl)c3)ncnc2cc1OCCCN(C)C :: 0.55
C=C(F)C(=O)Nc1cc2c(Nc3ccc(Br)cc3F)ncnc2cc1OCCCN1CCOCC1 :: 1.6
C=C(Cl)C(=O)Nc1cc2c(Nc3ccc(F)c(Cl)c3)ncnc2cc1OC :: 0.13

a: C=C(F)C(=O)Nc1cc2c(Nc3ccc(Br)c(Cl)c3F)ncnc2cc1OCCCN1CCOCC1
b: C=C(F)C(=O)Nc1cc2c(Nc3ccc(F)c(Cl)c3F)ncnc2cc1OCCCN1CCOCC1
c: C=C(F)C(=O)Nc1cc2c(Nc3ccc(F)c(F)c3F)ncnc2cc1OCCCN1CCOCC1
hey, can you rank those molecules up there by IC50? biggest number first please Respond with an ordered listing of the labels, as requested.
c, a, b
(c: 0.72 nM, a: 0.35 nM, b: 0.19 nM)

I: C=C(F)C(=O)Nc1cc2c(Nc3cccc(Cl)c3F)ncnc2cc1OCCCN1CCOCC1
II: C=C(F)C(=O)Nc1cc2c(Nc3ccc(F)cc3F)ncnc2cc1OCCCN1CCOCC1
III: COc1cc2ncnc(Nc3ccc(F)c(Cl)c3)c2cc1NC(=O)/C(F)=C/CN1CCOCC1
hey, can you rank those molecules up there by IC50? biggest number first please Respond with an ordered listing of the labels, as requested.
II, III, I

A: C=C(F)C(=O)Nc1cc2c(Nc3ccc(F)c(Cl)c3)ncnc2cc1OCCCN1CCCCC1
B: CN(C)C/C=C(/F)C(=O)Nc1cc2c(Nc3ccc(F)c(Cl)c3)ncnc2cc1O[C@H]1CCOC1
When A and B are compared, which has the higher number for IC50? Give the chosen item's label as your response.
A
(A: 1 nM, B: 0.31 nM)

----------
molecular target: EGFR tyrosine kinase (Homo sapiens); construct: purchased Sigma Aldrich; experiment: HTRF assay, inhibition of EGFR tyrosine kinase; assay type: biochemical; details: HTRF method
MEASURE: IC50 (nM)

C=C(F)C(=O)Nc1cc2c(Nc3cccc(C(F)(F)F)c3)ncnc2cc1OCC :: 0.97
C=C(F)C(=O)Nc1cc2c(Nc3ccc(OCc4cccc(F)c4)c(Cl)c3)ncnc2cc1OCCCN1CCOCC1 :: 3.3
C=C(F)C(=O)Nc1cc2c(Nc3ccc(F)c(Cl)c3)ncnc2cc1OCCCN1CCN(C)CC1 :: 0.29

A: C=C(F)C(=O)Nc1cc2c(Nc3ccc(F)c(Cl)c3)ncnc2cc1OCCCN1CCCC1
B: C=C(F)C(=O)Nc1cc2c(Nc3cccc(Br)c3)ncnc2cc1OCCCN1CCOCC1
C: CCOc1cc2ncnc(Nc3ccc(OCc4ccccn4)c(Cl)c3)c2cc1NC(=O)/C(F)=C/CN(C)C
D: C#Cc1cccc(Nc2ncnc3cc(OCCCN4CCOCC4)c(NC(=O)C(=C)F)cc23)c1
E: C=C(F)C(=O)Nc1cc2c(Nc3ccc(F)c(Cl)c3F)ncnc2cc1O[C@@H]1CCN(C)C1
Endpoint returns the given compounds ordered by ascending IC50. Respond with an ordered listing of the labels, as requested.
D, B, C, A, E

----------
target: EGFR tyrosine kinase (Homo sapiens, UniProt P00533); construct: purchased Sigma Aldrich; assay: HTRF assay, inhibition of EGFR tyrosine kinase; type: biochemical; settings: HTRF method
MEASURE: IC50 (nM)

C=C(F)C(=O)Nc1cc2c(Nc3ccc(F)c(Cl)c3F)ncnc2cc1OCC1CCN(C)CC1 [Compound 6] :: 0.54

a: C=C(Cl)C(=O)Nc1cc2c(Nc3ccc(F)c(Cl)c3)ncnc2cc1OCCCN1CCOCC1 [Compound 41]
b: C=C(F)C(=O)Nc1cc2c(Nc3ccc(F)c(Cl)c3F)ncnc2cc1OCC1CC1 [Compound 48]
Lab log: flag the item ( a or b ) with the smaller IC50 figure. Give the chosen item's label as your response.
a
(a: 0.37 nM, b: 0.65 nM)

----------
molecular target: EGFR tyrosine kinase (Homo sapiens, UniProt P00533); construct: purchased Sigma Aldrich; assay: HTRF assay, inhibition of EGFR tyrosine kinase; assay type: biochemical; conditions: HTRF method
MEASURE: IC50 (nM)

Solved entries (count: 2):
COc1cc2ncnc(Nc3ccc(F)c(Cl)c3)c2cc1NC(=O)/C(F)=C\CN1CCOCC1 [Compound 22-2] :: 0.3
C=C(F)C(=O)Nc1cc2c(Nc3ccc(Cl)c(OC)c3)ncnc2cc1OCCCN1CCOCC1 [Compound 37] :: 4.7

I: C=C(F)C(=O)Nc1cc2c(Nc3ccc(F)c(Cl)c3)ncnc2cc1OC [Compound 56]
II: C=C(F)C(=O)Nc1cc2c(Nc3ccc(F)c(Cl)c3F)ncnc2cc1O[C@H]1CCN(C)C1 [Compound 51]
III: C=C(Cl)C(=O)Nc1cc2c(Nc3ccc(F)c(Cl)c3F)ncnc2cc1OCCCN1CCOCC1 [Compound 34]
hey, can you rank those compounds up there by IC50? biggest number first please Respond with an ordered listing of the labels, as requested.
II, III, I
(II: 4.9 nM, III: 0.65 nM, I: 0.22 nM)
